target: T1, NCR3 (antigen of the ELISA in the affinity-maturation table) (human, UniProt O14931 19-135, limits assumed)
T1 construct: also called Natural Cytotoxicity Triggering Receptor 3
T1 sequence (looked up): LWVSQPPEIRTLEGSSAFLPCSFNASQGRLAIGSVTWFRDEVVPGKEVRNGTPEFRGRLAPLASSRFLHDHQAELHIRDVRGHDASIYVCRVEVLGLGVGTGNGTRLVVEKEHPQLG
assay: ELISA, Fab on NCR3
Known EC50 of a selection of binders
The reply should be a number in nM, with the unit left off.

The reported EC50 of the binder NCR3.18.7 (Fab, V domains shown, substitutions derived against parental HC3) VH: EVQLVESGGGLVQPGGSLRLSCAASGFNVSSSSIHWVRQAPGKGLEWVASISSSSGSTSYADSVKGRFTISADTSKNTAYLQMNSLRAEDTAVYYCARRISSYYISYYDSFYYAGMDYWGQGTLVTVSS VL: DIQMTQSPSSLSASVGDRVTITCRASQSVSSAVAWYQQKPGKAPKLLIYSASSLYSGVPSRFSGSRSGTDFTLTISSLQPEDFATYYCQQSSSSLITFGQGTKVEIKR was 1.23

The reported EC50 of the binder NCR3.18.11 (Fab, V domains shown, substitutions derived against parental HC3) VH: EVQLVESGGGLVQPGGSLRLSCAASGFNVSSSSIHWVRQAPGKGLEWVASISSSSGSTSYADSVKGRFTISADTSKNTAYLQMNSLRAEDTAVYYCARRLGSRYRSYYDSFYYAGMDYWGQGTLVTVSS VL: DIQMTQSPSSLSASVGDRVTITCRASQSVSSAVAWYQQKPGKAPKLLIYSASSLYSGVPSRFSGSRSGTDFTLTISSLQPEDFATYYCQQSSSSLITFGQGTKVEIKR was 0.77

The reported EC50 of the binder NCR3.18.19 (Fab, V domains shown, substitutions derived against parental HC3) VH: EVQLVESGGGLVQPGGSLRLSCAASGFNVSSSSIHWVRQAPGKGLEWVASISSSSGSTSYADSVKGRFTISADTSKNTAYLQMNSLRAEDTAVYYCARRVSSPYMSYYDSFYYAGLDYWGQGTLVTVSS VL: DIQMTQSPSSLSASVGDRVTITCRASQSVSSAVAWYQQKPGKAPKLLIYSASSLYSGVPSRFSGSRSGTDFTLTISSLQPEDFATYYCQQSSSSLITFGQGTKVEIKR was 0.38

More entries:
The reported EC50 of the binder NCR3.18.8 (Fab, V domains shown, substitutions derived against parental HC3) VH: EVQLVESGGGLVQPGGSLRLSCAASGFNVSSSSIHWVRQAPGKGLEWVASISSSSGSTSYADSVKGRFTISADTSKNTAYLQMNSLRAEDTAVYYCARRISSYYVSYYDSFYYAGMDYWGQGTLVTVSS VL: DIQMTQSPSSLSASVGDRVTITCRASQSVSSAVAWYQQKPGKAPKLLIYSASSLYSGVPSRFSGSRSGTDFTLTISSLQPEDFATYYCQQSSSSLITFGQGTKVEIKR was 0.95

The reported EC50 of the binder NCR3.18.4 (Fab, V domains shown, substitutions derived against parental HC3) VH: EVQLVESGGGLVQPGGSLRLSCAASGFNVSSSSIHWVRQAPGKGLEWVASISSSSGSTSYADSVKGRFTISADTSKNTAYLQMNSLRAEDTAVYYCARRISSHYMSYYDSFYYAGMDYWGQGTLVTVSS VL: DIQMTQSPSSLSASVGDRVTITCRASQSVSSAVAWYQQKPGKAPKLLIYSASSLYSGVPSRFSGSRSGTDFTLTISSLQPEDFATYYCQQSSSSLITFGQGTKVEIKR was 2.29

The reported EC50 of the binder NCR3.18.14 (Fab, V domains shown, substitutions derived against parental HC3) VH: EVQLVESGGGLVQPGGSLRLSCAASGFNVSSSSIHWVRQAPGKGLEWVASISSSSGSTSYADSVKGRFTISADTSKNTAYLQMNSLRAEDTAVYYCARRTGSYYMTYYDSFYYAGMDYWGQGTLVTVSS VL: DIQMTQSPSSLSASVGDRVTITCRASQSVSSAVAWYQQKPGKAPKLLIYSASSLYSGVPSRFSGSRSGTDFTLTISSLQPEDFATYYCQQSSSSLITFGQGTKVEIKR was 0.57

The reported EC50 of the binder NCR3.18.17 (Fab, V domains shown, substitutions derived against parental HC3) VH: EVQLVESGGGLVQPGGSLRLSCAASGFNVSSSSIHWVRQAPGKGLEWVASISSSSGSTSYADSVKGRFTISADTSKNTAYLQMNSLRAEDTAVYYCARRVGSYYMSYYDSFYYAGMDYWGQGTLVTVSS VL: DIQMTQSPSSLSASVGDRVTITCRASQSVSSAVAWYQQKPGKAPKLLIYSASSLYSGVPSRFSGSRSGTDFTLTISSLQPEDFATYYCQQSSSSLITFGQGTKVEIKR was 0.58

The reported EC50 of the binder NCR3.18.12 (Fab, V domains shown, substitutions derived against parental HC3) VH: EVQLVESGGGLVQPGGSLRLSCAASGFNVSSSSIHWVRQAPGKGLEWVASISSSSGSTSYADSVKGRFTISADTSKNTAYLQMNSLRAEDTAVYYCARRRASYYKTYYDSFYYAGMDYWGQGTLVTVSS VL: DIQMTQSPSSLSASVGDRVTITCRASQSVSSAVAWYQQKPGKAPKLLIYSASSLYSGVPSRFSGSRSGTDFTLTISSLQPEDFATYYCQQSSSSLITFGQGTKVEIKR was 0.53

The reported EC50 of the binder NCR3.18.1 (Fab, V domains shown, substitutions derived by comparing with parental HC3) VH: EVQLVESGGGLVQPGGSLRLSCAASGFNVSSSSIHWVRQAPGKGLEWVASISSSSGSTSYADSVKGRFTISADTSKNTAYLQMNSLRAEDTAVYYCARRASSRFRSYYDSFYYAGMDYWGQGTLVTVSS VL: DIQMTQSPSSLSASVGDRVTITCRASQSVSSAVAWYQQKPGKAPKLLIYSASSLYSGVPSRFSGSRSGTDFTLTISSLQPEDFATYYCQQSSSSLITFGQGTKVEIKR was 0.78

The reported EC50 of the binder NCR3.18.15 (Fab, V domains shown, substitutions derived against parental HC3) VH: EVQLVESGGGLVQPGGSLRLSCAASGFNVSSSSIHWVRQAPGKGLEWVASISSSSGSTSYADSVKGRFTISADTSKNTAYLQMNSLRAEDTAVYYCARRTSSHYISYYDSFYYAGMDYWGQGTLVTVSS VL: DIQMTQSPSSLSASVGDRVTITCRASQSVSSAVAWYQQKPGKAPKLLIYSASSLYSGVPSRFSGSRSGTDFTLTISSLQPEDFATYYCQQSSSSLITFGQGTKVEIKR was 2.98

The reported EC50 of the binder NCR3.18.13 (Fab, V domains shown, substitutions derived against parental HC3) VH: EVQLVESGGGLVQPGGSLRLSCAASGFNVSSSSIHWVRQAPGKGLEWVASISSSSGSTSYADSVKGRFTISADTSKNTAYLQMNSLRAEDTAVYYCARRRSSYYMTYYDSFYYAGMDYWGQGTLVTVSS VL: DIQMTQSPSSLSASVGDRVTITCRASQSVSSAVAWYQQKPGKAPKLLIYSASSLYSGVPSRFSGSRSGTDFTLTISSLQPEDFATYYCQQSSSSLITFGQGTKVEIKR was 0.98
